System: LPS-stimulated production of nitrite in RAW264.7 cell
ASSAY_TEXT: Inhibition of LPS-stimulated nitrite (NO) production, Griess reaction
Type: cell-based, murine
STATED_CONDITIONS: Mus musculus, RAW264.7; RAW 264.7 cells, LPS 100 ng/mL, 24 h, Griess reaction; read-out: IC50 (decrease nitrite of LPS-stimulated production)
OBSERVABLE: IC50 (µM)
Answers are plain numbers, in µM.

List reported IC50 for each of these compounds:
1. C=CCCCCCCCCC/C=C1\C(=O)OC(C)[C@@H]1O (some centres unmarked) [Compound 3]
2. CCCCCCCCCCC=CC1C(=O)OC(C)C1O (centres unmarked) [Compound 1]
3. CCCCCCCCCCCC/C=C/C1=CC(C)OC1=O (centres unmarked) [Compound 2, Akolactone A]
4. C=C1OC(=O)/C(=C/CCCCCCCCCCC)[C@H]1O [Compound 5, dihydroisoobtusilactone]
5. C=CCCCCCCCCC/C=C1/C(=O)OC(C)[C@@H]1O (some centres unmarked) [Compound 4]

Ans:
1. 2.4
2. 44.3
3. 180
4. 97.9
5. 1.4
